The measured values listed here are drawn from patent US7462639B2.

# experimental-system: Aurora A kinase (Homo sapiens, UniProt O14965)
# run-description: IC50 determination for inhibitors of Aurora A (ELISA-type kinase assay)
# experimental-setup: GST-Histone H3 substrate, mutant Aurora A kinase, 30 μM ATP, 40 minutes, read-out: IC50 Aurora A kinase inhibition
# Text: Aurora A is a serine threonine kinase involved in spindle assembly and chromosome segregation. The assay is a typically ELISA-type assay where substrate (GST-Histone H3) is coupled to the assay-plate and is phosphorylated by the kinase. Phosphorylation is detected by a mouse anti-Phosphopeptid mAb and an HRP-labeled anti-mouse pAb. The assay is validated for IC50-determination. […]
Under this convention, class 1 denotes IC50 strictly below 10 nM and class 0 denotes IC50 at or above 10 nM.

Query block: Lab note: IC50 threshold 10 nM. Does this molecule come in strictly under it? CCN1C(=O)C(C)(C)c2cc3nc(-c4n[nH]cc4NS(C)(=O)=O)[nH]c3cc21 [Example H-2]
Result block: class 0

Query block: Lab note: IC50 threshold 10 nM. Does this molecule come in strictly under it? CCN1C(=O)C(C)(C)c2cc3[nH]c(-c4n[nH]cc4NC(=O)CC(C)C)nc3cc21 [Example B-20]
Result block: class 1

Query block: Lab note: IC50 threshold 10 nM. Does this molecule come in strictly under it? CCN(CC)C(=O)Nc1c[nH]nc1-c1nc2cc3c(cc2[nH]1)C(C)(C)C(=O)N3CC [Example E-8]
Result block: class 1

Query block: Lab note: IC50 threshold 10 nM. Does this molecule come in strictly under it? CCN1C(=O)C(C)(C)c2cc3[nH]c(-c4n[nH]cc4NC(=O)c4cnccn4)nc3cc21 [Example C-11]
Result block: class 1

Query block: Lab note: IC50 threshold 10 nM. Does this molecule come in strictly under it? CCN1C(=O)C(C)(C)c2cc3[nH]c(-c4n[nH]cc4NC(=O)OCc4ccccc4)nc3cc21 [Example E-5]
Result block: class 0

Query block: Lab note: IC50 threshold 10 nM. Does this molecule come in strictly under it? CCN1C(=O)C(C)(C)c2cc3[nH]c(-c4n[nH]c(C)c4NCc4ccccc4)nc3cc21 [Example G-2]
Result block: class 0

Query block: Lab note: IC50 threshold 10 nM. Does this molecule come in strictly under it? CCN1C(=O)C(C)(C)c2cc3[nH]c(-c4n[nH]cc4NC(=O)C(F)(F)F)nc3cc21 [Example A-5]
Result block: class 0

Query block: Lab note: IC50 threshold 10 nM. Does this molecule come in strictly under it? CCN1C(=O)C(C)(C)c2cc3[nH]c(-c4n[nH]cc4NC(=O)N4CCC(OC)CC4)nc3cc21 [Example F-6]
Result block: class 0
